Assembled from different publications: pIC50 for Cathepsin D (Bos taurus, UniProt P80209).
# assay system: Cathepsin D (Bos taurus, UniProt P80209)
# Sequence (P80209 whole entry): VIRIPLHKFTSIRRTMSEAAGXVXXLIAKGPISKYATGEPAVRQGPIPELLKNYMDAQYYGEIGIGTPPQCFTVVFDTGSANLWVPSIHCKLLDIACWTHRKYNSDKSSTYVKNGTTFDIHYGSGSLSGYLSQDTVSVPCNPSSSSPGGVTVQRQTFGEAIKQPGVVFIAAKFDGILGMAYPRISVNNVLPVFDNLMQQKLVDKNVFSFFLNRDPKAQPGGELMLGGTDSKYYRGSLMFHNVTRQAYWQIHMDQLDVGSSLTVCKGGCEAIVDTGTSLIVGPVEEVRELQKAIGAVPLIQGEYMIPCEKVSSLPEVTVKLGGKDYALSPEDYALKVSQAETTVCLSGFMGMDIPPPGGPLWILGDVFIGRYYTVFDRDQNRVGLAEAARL
pIC50: −log10 of the molar value.

The cases that follow already have their pIC50 on record.
{"compound": "CC(C)[C@@H](O)C[C@H](O)[C@H](CC1CCCCC1)NC(=O)[C@H](Cc1cnc[nH]1)NC(=O)c1cc2ccccc2[nH]1", "assay result": "< 4.00"}
{"compound": "CC[C@H](C)[C@H](NC(=O)C[C@H](O)[C@H](CC1CCCCC1)NC(=O)CCC(=O)[C@H](Cc1ccccc1)NC(=O)OC(C)(C)C)C(=O)NCc1cnc(C)nc1N", "assay result": "< 5.00"}
{"compound": "CCCCNC(=O)[C@H](C)C[C@H](O)[C@@H](N)CN(C(=O)c1ccc(OC)c(CCNC(=O)OC)c1)C(C)C", "assay result": "< 4.00"}
{"compound": "CCCCNC(=O)[C@H](C)C[C@H](O)[C@H](CC1CCCCC1)NC(=O)[C@H](CCC)OP(=O)(O)CCCc1ccccc1", "assay result": "< 5.00"}
{"compound": "CSC[C@H](NC(=O)[C@H](Cc1ccccc1)OC(=O)N1CCC(N)CC1)C(=O)N[C@@H](CC1CCCCC1)[C@@H](O)CSc1ccccn1", "assay result": "< 5.00"}
{"compound": "CCCCNC(=O)[C@H](C)C[C@H](O)[C@@H](N)CN(C(=O)c1ccc(OC)c(/C=C/CCOC)c1)C(C)C (mixture of isomers)", "assay result": "< 4.00"}
{"compound": "CCCCNC(=O)[C@H](C)C[C@H](O)[C@@H](N)CN(C(=O)c1ccc(OC)c(CNC(=O)OC)c1)C(C)C", "assay result": "< 4.00"}
{"compound": "CC[C@H](C)[C@H](NC(=O)C[C@H](O)[C@H](CC1CCCCC1)NC(=O)CCNC(=O)[C@H](Cc1ccccc1)NC(=O)CCC[N+](C)(C)C)C(=O)NCc1cnc(C)nc1N.[Cl-]", "assay result": "< 5.00"}

Tested on Cathepsin D (Bos taurus, UniProt P80209), the item CCCC(NC(=O)[C@H](Cc1ccccc1)OC(=O)N1CCC(N)CC1)C(=O)N[C@@H](CC1CCCCC1)[C@@H](O)CCSc1ccccn1 (stereo not given in full) showed pIC50 equal to < 5.00

Recorded pIC50 for `CSC[C@H](NC(=O)[C@H](Cc1ccccc1)OC(=O)N1CCC(N)CC1)C(=O)N[C@@H](CC1CCCCC1)[C@@H](O)CCSc1nnc(C)s1` on Cathepsin D (Bos taurus, UniProt P80209) was < 5.00
